- Test system: 786-0 renal
- experiment-description: NCI-60 one-dose screen, 48 h
- setup-conditions: 10 µM unless noted
This is part of a sample that, as a whole, favours compounds with a hit. Of some 83,000 tested, about 20% had one in any assay. Calls of active or inactive are those of the source. The calls were made as follows: active = growth percent below 10; inactive = the rest.
Field 'call' accepts active, inactive

Here are 5 molecules together with their reported answers.
CCOC(=O)C(CCCCC(NC(C)=O)(C(=O)OCC)C(=O)OCC)(NC(C)=O)C(=O)OCC :: inactive
CN1CCC2(CC1)N=C(SCC(=O)Nc1cnc3ccccc3c1)C(c1ccc(Br)cc1)=N2 :: active
COc1ccc2c(c1)C1=NN(C(=O)CO)[C@H](c3ccc(OC(F)(F)F)cc3)[C@@H]1CC2 :: inactive
O=C(c1ccc(OCCN2CCCCC2)cc1)c1c(-c2ccc(O)cc2)sc2cc(O)ccc12 :: inactive
COc1cc(/C=C/c2cc(/C=C/c3ccc(O)c(OC)c3)n(C(=O)Nc3ccc(F)c(Cl)c3)n2)ccc1O :: active

In this assay, the call recorded for CC1CCCN(CCCCOc2ccc(-c3ccc(C#N)cc3)cc2)C1 (centres undefined) was what?
inactive

In this assay, the call recorded for COc1ccc(C(=O)N2N=C(c3ccc(F)cc3)CC2c2cn(-c3ccccc3)nc2-c2ccccc2)cc1 (centres undefined) was what?
inactive

In this assay, the call recorded for C[Si](C)(C)C(c1ccccc1)c1ccccc1 was what?
inactive

In this assay, the call recorded for O=C(CC(=O)c1ccccc1F)Nc1ccc([N+](=O)[O-])cc1 was what?
inactive

----------
- Tested on: NCI-H23 lung
- experiment-description: NCI-60 one-dose screen, 48 h
- setup-conditions: 10 µM unless noted
The panel holds about 83,000 compounds, 20% with a hit somewhere; the sample as a whole holds those more often. Active and inactive are the calls of the source. The calls were made as follows: active = growth percent below 10; inactive = the rest.
Field 'call' accepts TRUE (active), FALSE (inactive)

Here are 3 molecules together with their reported answers.
O=S1(=O)NCCCN1CCNc1nccc(-c2c(-c3cccc(O)c3)nc3sccn23)n1 :: FALSE
CN(C)c1nc(-c2cccs2)n2nc(-c3ccco3)cc2n1 :: FALSE
CCN1C(=O)N(CC)C2C1N=C(SC)N2/N=C/C=C/c1ccccc1OC (stereo unspecified) :: FALSE

In this assay, the call recorded for CN1CCCN(CCNc2nccc(-c3c(-c4cccc(O)c4)nc4sccn34)n2)S1(=O)=O was what?
FALSE

In this assay, the call recorded for O=C(Nc1ccccc1)c1cc2ccccc2s1 was what?
FALSE

In this assay, the call recorded for CC(=O)O[C@H]1CC[C@]2(C)[C@H]3CC=C4[C@@H]5CC(C)(C)CC[C@]5(C(=O)OCC(COC(=O)C(Cl)Cl)(COC(=O)C(Cl)Cl)NC(=O)C(Cl)Cl)CC[C@@]4(C)[C@]3(C)CC[C@H]2C1(C)C was what?
FALSE

In this assay, the call recorded for N=c1nc(N2CCCCC2)cc(N)n1O was what?
FALSE

In this assay, the call recorded for COc1ccc2c(c1)C1=NN(C(=O)CO)[C@H](c3ccc(OC(F)(F)F)cc3)[C@@H]1CC2 was what?
FALSE

In this assay, the call recorded for CO[C@H](C(=O)[C@@H](O)[C@@H](C)O)[C@@H]1Cc2cc3cc(O[C@H]4C[C@@H](O[C@H]5C[C@@H](O)[C@H](O)C(C)O5)[C@H](O)C(C)O4)c(C)c(O)c3c(O)c2C(=O)[C@H]1O[C@H]1C[C@@H](O[C@H]2C[C@@H](O[C@H]3C[C@](C)(O)C(=O)C(C)O3)[C@@H](O)C(C)O2)[C@H](O)C(C)O1 (stereo partly specified) was what?
TRUE
